- System under test: Cytochrome P450 2C19 (Homo sapiens)
- Sequence (P33261 whole entry): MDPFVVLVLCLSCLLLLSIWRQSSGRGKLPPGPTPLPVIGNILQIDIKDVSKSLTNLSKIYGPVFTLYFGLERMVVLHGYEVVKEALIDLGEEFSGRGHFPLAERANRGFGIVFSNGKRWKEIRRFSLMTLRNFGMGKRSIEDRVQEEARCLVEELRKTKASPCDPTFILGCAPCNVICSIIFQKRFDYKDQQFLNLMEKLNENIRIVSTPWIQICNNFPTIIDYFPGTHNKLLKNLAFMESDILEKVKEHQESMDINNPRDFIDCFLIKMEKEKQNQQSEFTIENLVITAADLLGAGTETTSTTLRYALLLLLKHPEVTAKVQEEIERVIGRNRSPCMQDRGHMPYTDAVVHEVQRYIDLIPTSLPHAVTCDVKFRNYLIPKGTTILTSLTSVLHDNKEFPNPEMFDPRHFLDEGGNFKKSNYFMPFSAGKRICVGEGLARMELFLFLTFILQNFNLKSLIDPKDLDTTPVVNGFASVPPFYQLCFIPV
- Procedure details: Cytochrome panel assay with activity outcomes. Panel member name: p450-cyp2c19 Compounds with AC50 equal or less than 10 uM are considered active
- Type: functional
- Protocol conditions: read-out: AC50

| Smiles repr | AC50 |
| --- | --- |
| O=C(O)c1c2ccccc2cc2ccccc12 | 25.1 µM (inconclusive) |
| CCOC(=O)N1CCN(C(=O)CSCc2ccc(Cl)cc2)CC1 | 17.8 µM (inconclusive) |
| Cc1ccccc1-c1cc(C(=O)n2cccn2)c2cc(Cl)ccc2n1 | 7.08 µM (inconclusive) |
| CSc1nc(-c2ccc(C)cc2)nc(C(Cl)Cl)n1 | 0.398 µM (inconclusive) |
| Cc1cc(=O)oc(C)c1C(=O)NCc1ccccc1 | 39.8 µM (inconclusive) |
| CCS(=O)(=O)N1CCC(C(=O)NCc2cccnc2)CC1 | 22.4 µM (inconclusive) |

These entries and their values trace back to ChEMBL document CHEMBL1201862.
